Source: patent US5175320A

- method_notes: pKa
- Type: physicochemical
endpoint: pKa
Please reply with the number alone, leaving off any unit.

## Input Fill in reported pKa for this entry: C[C@H](CCC(=O)O)[C@H]1CC[C@H]2[C@@H]3[C@H](O)C(F)[C@H]4C[C@H](O)CC[C@]4(C)[C@H]3CC[C@]12C (stereo partly shown) [Example 6-FCDCA]
## Output 5
